assayTarget: Lysosomal acid glucosylceramidase (Mus musculus, UniProt P17439)
protocolNotes: Specific inhibitory activity against Glucosylceramidase in mouse liver
Format: tissue-based
property: pIC50
FYI, pIC50 means -log10 of a concentration in mol per litre.

Q. // lookup pIC50 for O[C@H]1[C@H](O)[C@@H](O)[C@@H]2O[C@@H]2[C@@H]1O [CONDURITOL B EPOXIDE]
A. 5.05

----------
Examples of molecules with documented pIC50 follow.
assayTarget: Lysosomal acid glucosylceramidase (Mus musculus)
Sequence (P17439 whole entry): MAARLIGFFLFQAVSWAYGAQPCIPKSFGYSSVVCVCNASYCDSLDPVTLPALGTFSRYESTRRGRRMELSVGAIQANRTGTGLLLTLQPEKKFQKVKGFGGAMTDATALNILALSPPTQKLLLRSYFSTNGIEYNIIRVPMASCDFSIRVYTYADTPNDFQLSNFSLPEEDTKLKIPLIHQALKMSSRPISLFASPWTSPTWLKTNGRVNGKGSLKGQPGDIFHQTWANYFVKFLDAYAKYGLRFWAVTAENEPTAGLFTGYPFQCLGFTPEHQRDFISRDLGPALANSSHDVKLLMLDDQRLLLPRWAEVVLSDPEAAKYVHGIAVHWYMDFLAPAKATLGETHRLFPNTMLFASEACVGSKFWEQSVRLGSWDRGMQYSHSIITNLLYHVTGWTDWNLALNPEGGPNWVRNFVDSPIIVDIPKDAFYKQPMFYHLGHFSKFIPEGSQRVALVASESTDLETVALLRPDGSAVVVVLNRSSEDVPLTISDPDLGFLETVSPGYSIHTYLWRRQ
protocolNotes: Inhibitory activity against Glucosylceramidase in mouse liver
Type: tissue-based
FYI, pIC50 means -log10 of a concentration in mol per litre.

- smilesEntry: "O[C@@H]1[C@@H](O)[C@H](O)C[C@H]2O[C@@H]12"
  pIC50: 6.02

Please examine the following record next.
Q. // lookup pIC50 for `O[C@@H]1[C@H]2O[C@H]2[C@H](O)C[C@H]1O`
A. 4.01
